target: Serine/threonine-protein kinase pim-1 (Homo sapiens); experiment: Inhibition of human full length Pim-1 using RSRHSSYPAGT as substrate assessed as residual activity at 1 uM after 30 mins in presence of [gamma-33P]ATP; values are per cent of control
Sequence (P11309 whole entry, looked up): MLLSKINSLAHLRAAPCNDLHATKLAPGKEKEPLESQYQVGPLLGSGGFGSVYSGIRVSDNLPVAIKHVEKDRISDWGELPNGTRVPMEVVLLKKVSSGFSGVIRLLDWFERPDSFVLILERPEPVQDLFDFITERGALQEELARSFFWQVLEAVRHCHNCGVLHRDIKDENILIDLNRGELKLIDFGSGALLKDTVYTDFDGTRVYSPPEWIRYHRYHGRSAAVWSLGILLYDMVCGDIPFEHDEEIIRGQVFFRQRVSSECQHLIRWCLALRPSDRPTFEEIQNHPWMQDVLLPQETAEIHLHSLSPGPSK
PROPERTY: residual activity

RECORD SMILES	PROPERTY	REPORTED
O=Cc1c[nH]c2c([N+](=O)[O-])cc3cn[nH]c3c12	residual activity	97%
CCOC(=O)c1[nH]c2c([N+](=O)[O-])cc3cn[nH]c3c2c1-c1ccccc1	residual activity	86%
CCOC(=O)c1[nH]c2c(N)cc3cn[nH]c3c2c1C	residual activity	93%
CCOC(=O)c1[nH]c2c([N+](=O)[O-])cc3cn[nH]c3c2c1C	residual activity	78%
Cc1c[nH]c2c(N)cc3cn[nH]c3c12	residual activity	91%
Cc1c[nH]c2c([N+](=O)[O-])cc3cn[nH]c3c12	residual activity	68%

Source listed as ChEMBL document CHEMBL2375344.
